- System: Recombinant Coprinus cinereus laccase (rCcL)
- Method: Bleaching of methyl orange using rCcL and NOH-type enhancing agents (initial bleaching rate)
- Type: biochemical
- Condition label: pH 6; rCcL solution diluted 1:200; 0.2 mM mediator; 30° C.; large negative numbers = best performance
Readout type: Initial changes per minute in A464 nm of methyl orange using rCcL (per minute)
// note: answer is a bare numeric in per minute

query: Please report the recorded Initial changes per minute in A464 nm of methyl orange using rCcL for [O-][n+]1ccc2ccccc2c1 [Iso-quinoline-N-oxide] .
result: −0.008

Continuing:
query: Please report the recorded Initial changes per minute in A464 nm of methyl orange using rCcL for O=C1c2ccccc2C(=O)N1O [N-hydroxyphthalimide] .
result: −0.014

query: Please report the recorded Initial changes per minute in A464 nm of methyl orange using rCcL for [O-][n+]1cccc2ccccc21 [Quinoline-N-oxide] .
result: −0.010

query: Please report the recorded Initial changes per minute in A464 nm of methyl orange using rCcL for On1nnc2ccccc21 [1-hydroxybenzotriazole, 1-Hydroxybenzotriazole] .
result: −0.019

query: Please report the recorded Initial changes per minute in A464 nm of methyl orange using rCcL for CCOc1ccc(N=[N+]([O-])c2ccc(OCC)cc2)cc1 [p,p′-azoxydiphenetole, p,p′-Azoxydiphenetole] .
result: 0.002
